Test system: Phospho-ERK1/2 in DLD1 cells
Experiment: Phospho-ERK1/2 expression inhibition in DLD1 cells
Type: cell-based
Settings: Homo sapiens, DLD-1, 4 hours, read-out: DLD1 pERK IC50
The reader will find reported IC50 values listed item by item below.

>>> value("Cc1c([C@@H](C)Nc2ccnc3ccc(N4CC5CC(C4)O5)cc23)cccc1C(F)(F)F")
"> 500 nM"

IC50 of `Cc1c([C@@H](C)Nc2ccnc3ccc(N4CCNC[C@H]4C)cc23)cccc1C(F)(F)F` on Phospho-ERK1/2 in DLD1 cells?
> 500 nM

* * *

Test system: Phospho-ERK1/2 in DLD1 cells
Test: Phospho-ERK1/2 expression inhibition in DLD1 cells
Format: cell-based
Conditions: Homo sapiens, DLD-1, 4 hours, read-out: DLD1 pERK IC50
pIC50: −log10 of the molar value.
quantity.name: pIC50

Reference set, count: 2
>>> value("CO[C@]1(c2ccc3nccc(N[C@H](C)c4cccc(C(F)F)c4F)c3c2)CCN(C(=O)C(C)C)C1")
"≥ 6.82"
>>> value("Cc1c([C@@H](C)Nc2ccnc3ccc(N4CC[C@@H](N)C4)cc23)cccc1C(F)(F)F")
"< 6.30"

// switching to the query compound
Quick check: pIC50 of `Cc1c([C@@H](C)Nc2ccnc3ccc(N4C[C@H](C)NC[C@H]4C)cc23)cccc1C(F)(F)F` ?
< 6.30
